protocol description: in vitro
test conditions: dog, liver microsomes
value kind: CLint scaled at 0.5 h, 1 µM (L/h/kg)

N#Cc1ccccc1-c1ccc2c(c1)CCn1c-2cc(OCC2COCCO2)nc1=O (stereo not drawn)
10

A. O=c1nc(OC[C@@H]2COCCO2)cc2n1CCc1cc(C#CC3CC3)ccc1-2 [GLPG-1205]
B. O=c1nc(OC[C@H]2COCCO2)cc2n1CCc1cc(C#CC3CC3)ccc1-2
Could you tell me which of these two has the smaller CLint scaled at 0.5 h, 1 µM figure? First: A Second: B Response format: the label of the selected entry.
B
(B: 3.16 L/h/kg, A: 5.34 L/h/kg)

---

protocol description: in vitro
test conditions: dog, cryopreserved hepatocytes
value kind: half-life at 1 µM

O=c1nc(OC[C@@H]2COCCO2)cc2n1CCc1cc(C#CC3CC3)ccc1-2
> 3.33 h

Could you now consider this next compound?
Request the reported half-life at 1 µM associated with `O=c1nc(OC[C@H]2COCCO2)cc2n1CCc1cc(C#CC3CC3)ccc1-2`
> 2.52 h

---

study target: Cytochrome P450 2D6 (Homo sapiens) (UniProt P10635)
Sequence (P10635 whole entry, looked up): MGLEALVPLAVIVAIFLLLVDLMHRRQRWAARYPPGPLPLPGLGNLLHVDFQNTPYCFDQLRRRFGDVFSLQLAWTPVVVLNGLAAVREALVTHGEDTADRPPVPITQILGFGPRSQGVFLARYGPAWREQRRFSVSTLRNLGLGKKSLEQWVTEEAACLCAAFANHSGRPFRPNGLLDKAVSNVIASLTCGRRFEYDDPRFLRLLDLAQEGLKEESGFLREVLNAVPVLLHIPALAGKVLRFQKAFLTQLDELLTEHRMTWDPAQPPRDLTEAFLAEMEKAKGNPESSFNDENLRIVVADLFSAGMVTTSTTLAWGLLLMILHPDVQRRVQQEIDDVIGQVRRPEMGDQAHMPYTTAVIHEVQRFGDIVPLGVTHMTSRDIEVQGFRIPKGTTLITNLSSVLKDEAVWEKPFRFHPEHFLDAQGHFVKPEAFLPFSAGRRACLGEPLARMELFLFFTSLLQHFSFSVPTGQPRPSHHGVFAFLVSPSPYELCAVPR
value kind: IC50

Give its IC50 value. Item: O=c1nc(OC[C@@H]2COCCO2)cc2n1CCc1cc(C#CC3CC3)ccc1-2 [GLPG-1205]
> 100 µM

---

study target: CYP3A4 (Homo sapiens, UniProt P08684)
Sequence (P08684 whole entry): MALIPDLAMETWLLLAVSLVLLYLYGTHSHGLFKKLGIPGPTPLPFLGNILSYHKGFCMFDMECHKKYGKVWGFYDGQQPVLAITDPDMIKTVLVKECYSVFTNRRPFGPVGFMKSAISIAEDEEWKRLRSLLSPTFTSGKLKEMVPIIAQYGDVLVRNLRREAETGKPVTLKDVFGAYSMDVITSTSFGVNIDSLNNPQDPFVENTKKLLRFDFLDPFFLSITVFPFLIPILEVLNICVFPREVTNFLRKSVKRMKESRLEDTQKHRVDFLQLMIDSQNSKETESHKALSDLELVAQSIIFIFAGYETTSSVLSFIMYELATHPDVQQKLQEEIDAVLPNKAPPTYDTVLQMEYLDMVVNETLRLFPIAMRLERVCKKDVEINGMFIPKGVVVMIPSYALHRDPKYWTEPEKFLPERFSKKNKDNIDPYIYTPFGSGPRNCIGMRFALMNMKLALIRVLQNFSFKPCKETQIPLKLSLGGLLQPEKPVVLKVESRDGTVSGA
protocol description: Inhibition of CYP3A4 in human liver microsomes at 10 uM using midazolam as probe substrate and in presence of co-factor measured after 20 mins by LC-MS/MS analysis relative to control
Assay type: ADME
value kind: inhibition at 20 min, 10 µM

Entry `COc1cc2c(cc1OC)-c1cc(NCc3ccccc3)nc(=O)n1CC2` has what inhibition at 20 min, 10 µM?
< 33%

---

protocol description: in vivo
test conditions: male, Sprague-Dawley, rat, po, 5 mg/kg
value kind: Cmax at 1.7 h (ng/mL)
# unit: ng/mL | format: bare number

# lookup: Cmax at 1.7 h of O=c1nc(OCC2COCCO2)cc2n1CCc1cc(C#CC3CC3)ccc1-2 (racemic)
2420

---

protocol description: in vivo
test conditions: Beagle, dog, po
Description: Half life in Beagle dog at 2.5 mg/kg, po administered as single dose via gavage by LC-MS/MS analysis
value kind: half-life (h)
Answer in h, number only, no unit symbol.

Fill in: half-life of `O=c1nc(OC[C@@H]2COCCO2)cc2n1CCc1cc(C#CC3CC3)ccc1-2` is ___
2

---

protocol description: Half-life in plasma of Balb/c mouse model of DSS-induced colitis at 10 mg/kg, po administered using PEG-200/water formulation starting from day 1 to 11 measured by LC-MS analysis
value kind: half-life (h)
Numeric answer only, unit h assumed.

Consider the molecule shown here: `O=c1nc(OC[C@@H]2COCCO2)cc2n1CCc1cc(C#CC3CC3)ccc1-2` What is its recorded half-life?
2.3

---

protocol description: in vivo
test conditions: CD1, mouse, po, 5 mg/kg
value kind: Cmax at 24 h (ng/mL)
Number in ng/mL, nothing else.

So what's the measured Cmax at 24 h for this one? `O=c1nc(OC[C@@H]2COCCO2)cc2n1CCc1cc(C#CC3CC3)ccc1-2`
4590

---

protocol description: Plasma protein binding in rat at 5 uM measured after 4 hrs by LC-MS/MS analysis
value kind: fraction unbound at 4 h, 5 µM

Worked cases, fraction unbound at 4 h, 5 µM given:
O=c1nc(OC[C@H]2COCCO2)cc2n1CCc1cc(C#CC3CC3)ccc1-2
0.037
COc1ccc2c(c1)CCn1c-2cc(OC[C@H]2COc3ncccc3O2)nc1=O
0.021

1. COc1ccc2c(c1)CCn1c-2cc(OCC2COCCO2)nc1=O (stereo not given)
2. COc1ccc2c(c1)CCn1c-2cc(OCC2COc3ccccc3O2)nc1=O (stereo not given)
I'm curious whether 1 or 2 has the smaller fraction unbound at 4 h, 5 µM number. Which is it? Record your answer as the label of the chosen record.
2
